Items are presented alongside their recorded pKd.
- target.or.system: T1, Clostridium difficile toxin A (TcdA) (Clostridium difficile, UniProt P16154 1-2710)
- T1 construct: mature; also called full-length TcdA
- T1 sequence (P16154 whole entry): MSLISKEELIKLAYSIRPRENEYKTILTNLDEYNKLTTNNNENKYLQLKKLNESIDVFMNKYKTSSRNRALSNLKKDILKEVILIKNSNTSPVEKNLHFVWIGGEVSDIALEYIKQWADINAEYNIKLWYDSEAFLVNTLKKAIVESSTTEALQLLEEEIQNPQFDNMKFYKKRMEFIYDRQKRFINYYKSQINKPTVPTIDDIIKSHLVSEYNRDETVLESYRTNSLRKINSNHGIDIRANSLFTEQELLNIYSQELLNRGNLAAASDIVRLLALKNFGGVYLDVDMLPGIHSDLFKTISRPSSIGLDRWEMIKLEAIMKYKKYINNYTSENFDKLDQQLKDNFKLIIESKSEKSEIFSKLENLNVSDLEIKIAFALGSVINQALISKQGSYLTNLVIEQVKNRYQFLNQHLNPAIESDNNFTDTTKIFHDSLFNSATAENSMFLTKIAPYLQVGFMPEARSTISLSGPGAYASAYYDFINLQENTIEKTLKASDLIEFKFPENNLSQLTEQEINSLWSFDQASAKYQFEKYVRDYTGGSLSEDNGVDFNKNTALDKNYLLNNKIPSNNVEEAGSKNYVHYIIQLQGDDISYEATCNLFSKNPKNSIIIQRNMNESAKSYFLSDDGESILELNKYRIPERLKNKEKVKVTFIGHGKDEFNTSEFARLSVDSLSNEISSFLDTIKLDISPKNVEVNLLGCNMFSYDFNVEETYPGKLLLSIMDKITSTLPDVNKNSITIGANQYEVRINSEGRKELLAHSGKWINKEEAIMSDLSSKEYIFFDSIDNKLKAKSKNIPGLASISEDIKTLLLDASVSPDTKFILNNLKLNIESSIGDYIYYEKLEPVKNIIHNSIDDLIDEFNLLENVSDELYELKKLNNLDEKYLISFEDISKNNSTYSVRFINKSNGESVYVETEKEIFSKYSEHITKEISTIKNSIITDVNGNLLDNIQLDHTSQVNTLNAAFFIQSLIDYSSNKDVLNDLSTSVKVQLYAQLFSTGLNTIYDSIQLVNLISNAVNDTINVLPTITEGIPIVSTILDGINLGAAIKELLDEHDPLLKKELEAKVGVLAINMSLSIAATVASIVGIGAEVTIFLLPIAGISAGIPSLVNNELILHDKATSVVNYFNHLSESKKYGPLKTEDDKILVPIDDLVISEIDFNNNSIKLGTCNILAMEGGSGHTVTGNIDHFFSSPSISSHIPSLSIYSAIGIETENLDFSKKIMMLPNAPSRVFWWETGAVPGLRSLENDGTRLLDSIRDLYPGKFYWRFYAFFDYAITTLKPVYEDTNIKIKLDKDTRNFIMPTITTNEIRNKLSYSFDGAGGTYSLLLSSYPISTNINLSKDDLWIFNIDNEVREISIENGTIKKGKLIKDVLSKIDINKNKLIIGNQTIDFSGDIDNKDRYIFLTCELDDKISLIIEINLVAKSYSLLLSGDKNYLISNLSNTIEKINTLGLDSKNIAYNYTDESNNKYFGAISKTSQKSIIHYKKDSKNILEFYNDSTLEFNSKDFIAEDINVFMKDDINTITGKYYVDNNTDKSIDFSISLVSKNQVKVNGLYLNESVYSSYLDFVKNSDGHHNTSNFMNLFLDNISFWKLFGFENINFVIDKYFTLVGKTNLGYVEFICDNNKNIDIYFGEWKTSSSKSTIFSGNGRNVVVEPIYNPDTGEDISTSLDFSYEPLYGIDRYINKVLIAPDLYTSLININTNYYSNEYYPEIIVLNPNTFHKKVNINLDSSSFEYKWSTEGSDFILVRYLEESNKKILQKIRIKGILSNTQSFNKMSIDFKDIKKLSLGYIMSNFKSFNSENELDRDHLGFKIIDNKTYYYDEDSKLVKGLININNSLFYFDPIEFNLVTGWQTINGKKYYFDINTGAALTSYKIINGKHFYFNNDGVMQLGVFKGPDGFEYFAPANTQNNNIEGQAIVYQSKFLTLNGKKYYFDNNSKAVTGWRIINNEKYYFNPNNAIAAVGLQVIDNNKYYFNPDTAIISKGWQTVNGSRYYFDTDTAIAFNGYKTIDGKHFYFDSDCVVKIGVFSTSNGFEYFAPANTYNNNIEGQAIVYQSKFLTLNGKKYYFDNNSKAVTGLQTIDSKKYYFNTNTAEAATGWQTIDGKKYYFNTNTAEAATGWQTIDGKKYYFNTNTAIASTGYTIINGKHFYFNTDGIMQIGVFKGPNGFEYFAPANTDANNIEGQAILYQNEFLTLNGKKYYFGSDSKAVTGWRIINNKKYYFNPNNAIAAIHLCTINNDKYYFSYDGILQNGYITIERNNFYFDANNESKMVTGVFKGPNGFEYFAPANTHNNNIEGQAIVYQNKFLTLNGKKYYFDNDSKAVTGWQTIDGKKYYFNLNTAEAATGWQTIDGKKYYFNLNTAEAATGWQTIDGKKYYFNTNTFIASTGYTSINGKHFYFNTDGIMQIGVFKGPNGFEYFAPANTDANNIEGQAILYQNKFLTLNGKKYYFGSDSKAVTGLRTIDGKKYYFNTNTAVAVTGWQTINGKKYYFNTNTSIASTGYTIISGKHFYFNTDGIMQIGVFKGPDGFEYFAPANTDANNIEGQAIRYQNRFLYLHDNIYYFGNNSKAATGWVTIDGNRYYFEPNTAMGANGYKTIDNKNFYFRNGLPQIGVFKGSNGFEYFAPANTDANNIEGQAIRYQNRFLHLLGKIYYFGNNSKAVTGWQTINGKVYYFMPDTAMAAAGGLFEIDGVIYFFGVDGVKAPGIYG
- measurement.protocol: SPR (Biacore 3000), VHH over immobilized TcdA, 1:1 fit
- Description: Before surface plasmon resonance (SPR) binding experiments, IMAC-purified VHHs were subjected to de-salting and further purification by size-exclusion chromatography (SEC). […] Monomeric VHH fractions were collected and analyzed for binding to TcdA using a Biacore 3000 SPR instrument (GE Healthcare). […] Reference-subtracted sensorgrams were analyzed with BIAevaluation software (GE Healthcare) and fit to a 1:1 binding model. […]
Please report pKd as the negative decimal logarithm of the molar concentration, giving only the number.

binder: A26.8-Q101K,T103K (VHH, not shown: small tags and cut ends) VHH: QVKLEESGGGLVQAGGSLRLSCAASERTFSRYPVAWFRQAPGAEREFVAVISSTGTSTYYADSVKGRFTISRDNAKVTVYLQMNNLKREDTAVYFCAVNSKRKRLQDPNEYDYWGQGTQVTVSS
reported.measurement: 8.09
--
binder: A26.8-T56I (VHH, not shown: small tags and cut ends) VHH: QVKLEESGGGLVQAGGSLRLSCAASERTFSRYPVAWFRQAPGAEREFVAVISSTGISTYYADSVKGRFTISRDNAKVTVYLQMNNLKREDTAVYFCAVNSQRTRLQDPNEYDYWGQGTQVTVSS
reported.measurement: 7.87
--
binder: A26.8-Q101K (VHH, not shown: small tags and cut ends) VHH: QVKLEESGGGLVQAGGSLRLSCAASERTFSRYPVAWFRQAPGAEREFVAVISSTGTSTYYADSVKGRFTISRDNAKVTVYLQMNNLKREDTAVYFCAVNSKRTRLQDPNEYDYWGQGTQVTVSS
reported.measurement: 8.12
--
binder: A26.8-T58K (VHH, not shown: small tags and cut ends) VHH: QVKLEESGGGLVQAGGSLRLSCAASERTFSRYPVAWFRQAPGAEREFVAVISSTGTSKYYADSVKGRFTISRDNAKVTVYLQMNNLKREDTAVYFCAVNSQRTRLQDPNEYDYWGQGTQVTVSS
reported.measurement: 7.87

The record that follows has no pKd shown yet.
If you can, please state the reported pKd value of A26.8-T54R (VHH, not shown: small tags and cut ends) VHH: QVKLEESGGGLVQAGGSLRLSCAASERTFSRYPVAWFRQAPGAEREFVAVISSRGTSTYYADSVKGRFTISRDNAKVTVYLQMNNLKREDTAVYFCAVNSQRTRLQDPNEYDYWGQGTQVTVSS .
7.88

Values were extracted from patent US20210171613A1.
